Biological target: tau (Homo sapiens, UniProt P10636)
Sequence (P10636 623-695 limits assumed): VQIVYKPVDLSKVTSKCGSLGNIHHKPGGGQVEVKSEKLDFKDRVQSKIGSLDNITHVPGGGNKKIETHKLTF
Experiment: MCE Phenols Library screening, tau biosensor cell seeding assay (AvZ)
Assay type: cell-based
Details: average of raw data 1 and 2
# label = label 1 if av puncta < 6000 else label 0

Worked examples follow.
* COc1cc(/C=C/C(=O)O)cc(O)c1O [5-Hydroxyferulic acid] | label 0
* O=c1c(O)c(-c2ccc(O)cc2)oc2c(O)c(O)cc(O)c12 | label 1

Prompt line: Please state whether av puncta is below 6000 for O=C(OC[C@H]1OC(OC(=O)c2cc(O)c(O)c(O)c2)[C@H](OC(=O)c2cc(O)c(O)c(O)c2)[C@@H](OC(=O)c2cc(O)c(O)c(O)c2)[C@@H]1O)c1cc(O)c(O)c(O)c1 (some centres unmarked)
Response line: label 1

Prompt line: Same again, this time with COc1cc2c(cc1O)-c1cc3ccc(OC)c(OC)c3c[n+]1CC2
Response line: label 0

Prompt line: Same again, this time with O=C(O[C@@H]1Cc2c(O)cc(O)cc2O[C@H]1c1cc(O)c(O)c(O)c1)c1cc(O)c(O)c(O)c1 [(-)-Gallocatechin gallate]
Response line: label 1

Prompt line: Same again, this time with COc1cc(-c2cc(=O)c3c(O)cc(O)cc3o2)ccc1O
Response line: label 0

Prompt line: Same again, this time with COc1c(O[C@@H]2O[C@H](CO)[C@@H](O)[C@H](O)[C@H]2O)cc2oc(-c3ccc(O)cc3)cc(=O)c2c1O
Response line: label 0

###

Molecular target: tau (Homo sapiens)
Assay: MCE Phenols Library screening, tau biosensor cell seeding assay (AvZ)
Format: cell-based
Conditions: Z score, replicate 2
# label = yes if Z Repl 2 < -0.1 else no

Worked examples follow.
- COc1cc(O)c(C(C)=O)c(OC)c1 [Xanthoxylin]: no
- OC[C@H]1O[C@@H](Oc2cc(O)ccc2/C=C/c2cc(O)cc(O)c2)[C@H](O)[C@@H](O)[C@@H]1O [Oxyresveratrol 2-O-?-D-glucopyranoside]: no
- O=c1c(O)c(-c2ccc(O)cc2)oc2c(O)c(O)cc(O)c12 [Herbacetin]: yes
- COc1ccc(C(C)=O)c(O)c1O [2,3-Dihydroxy-4-methoxyacetophenone]: yes

Prompt line: Please state whether Z Repl 2 is below -0.1 for COc1cc(O)cc(O)c1C(=O)/C=C/c1ccccc1 [Cardamonin]
Response line: no

Prompt line: Same again, this time with C[C@@H]1O[C@@H](O[C@@H]2[C@@H](O)[C@H](OCCc3ccc(O)c(O)c3)O[C@H](CO)[C@H]2OC(=O)/C=C/c2ccc(O)c(O)c2)[C@H](O)[C@H](O)[C@H]1O [Verbascoside]
Response line: yes

Prompt line: Same again, this time with CC(C)=CC[C@H](OC(=O)C=C(C)C)C1=CC(=O)c2c(O)ccc(O)c2C1=O [?,?-Dimethylacrylalkannin]
Response line: no

###

Target: tau (Homo sapiens)
Test: MCE Phenols Library screening, tau biosensor cell seeding assay (AvZ)
Type: cell-based
Conditions: average Z score of the two replicates, tau seeding
av Z below 0.4 gives false (0); av Z at or above it gives true (1).

Worked examples follow.
• O=c1cc(-c2ccc(O)cc2)oc2cc(O)ccc12 [7,4'-Dihydroxyflavone] = false (0)
• COc1cc([C@@H]2OC[C@@H]3[C@H]2CO[C@H]3c2cc(OC)c(O[C@@H]3O[C@H](CO)[C@@H](O)[C@H](O)[C@H]3O[C@@H]3OC[C@](O)(CO)[C@H]3O)c(OC)c2)cc(OC)c1O = true (1)
• Cc1cc(=O)oc2cc(O)c(O)cc12 = false (0)

Prompt line: Quick check, av Z >= 0.4? C=C(C)[C@H](CC=C(C)C)Cc1c(O)cc(O)c2c1O[C@H](c1ccccc1O)CC2=O
Response line: true (1)

Prompt line: Same again, this time with COc1ccc(-c2coc3cc(O[C@@H]4O[C@H](CO)[C@@H](O)[C@H](O)[C@H]4O)c(OC)c(O)c3c2=O)cc1O
Response line: false (0)

Prompt line: Same again, this time with COc1ccc(-c2cc(=O)c3c(O)cc(O)c(-c4cc(-c5cc(=O)c6c(O)cc(OC)cc6o5)ccc4OC)c3o2)cc1
Response line: false (0)

Prompt line: Same again, this time with O=C(CCc1ccc(O)cc1)c1c(O)cc(O[C@@H]2O[C@H](CO)[C@@H](O)[C@H](O)[C@H]2O)cc1O
Response line: false (0)

Prompt line: Same again, this time with COc1cc(/C=C/c2ccc(O)c(O)c2)cc(OC)c1 [3'-Hydroxypterostilbene]
Response line: false (0)

Prompt line: Same again, this time with O=C1C[C@@H](c2ccc(O)cc2)Oc2cc(O[C@@H]3O[C@H](CO)[C@@H](O)[C@H](O)[C@H]3O)cc(O)c21
Response line: false (0)

Prompt line: Same again, this time with COc1ccc(-c2oc3c(CC=C(C)C)c(O[C@@H]4O[C@H](CO)[C@@H](O)[C@H](O)[C@H]4O)cc(O)c3c(=O)c2O[C@@H]2O[C@@H](C)[C@H](O)[C@@H](O)[C@H]2O)cc1
Response line: true (1)
